Tested on: Trypanosoma brucei
Test: Anti-trypanosomal activity, inhibition of T. brucei growth (ATP-bioluminescence luciferase assay)
Type: cell-based
Conditions: read-out: IC50 against Trypanosoma brucei
measure.name: IC50 (µg/mL)
Give a bare numeral; the unit µg/mL is implied.

{"smiles.string": "COc1cc(N)c2nccc(C)c2c1Oc1cccc(C(F)(F)F)c1", "IC50 / µg/mL": 1.08}
{"smiles.string": "COc1cc(NCCCN)c2nccc(C)c2c1Oc1cccc(C(F)(F)F)c1.O=C(O)CCC(=O)O", "IC50 / µg/mL": 0.34}
{"smiles.string": "COc1cc([N+](=O)[O-])c(N)cc1Oc1cccc(C(F)(F)F)c1", "IC50 / µg/mL": 25}

Now look at this one.
Query block: IC50 of COc1cc([N+](=O)[O-])c2nccc(C)c2c1Oc1cccc(C(F)(F)F)c1 on Trypanosoma brucei?
Result block: 2.5

----------
System: T47D human breast cancer cells
Assay: Soft agar colony growth, T47D cells
Format: cell-based
Settings: Table 2
measure.name: effect on breast cancer cell colony growth

{"smiles.string": "COc1cc(NCCCN)c2nccc(C)c2c1Oc1cccc(C(F)(F)F)c1.O=C(O)CCC(=O)O", "assay.value": "Decrease"}
{"smiles.string": "COc1cc([N+](=O)[O-])c(N)cc1Oc1cccc(C(F)(F)F)c1", "assay.value": "Decrease"}
{"smiles.string": "COc1cc(N)c2nccc(C)c2c1Oc1cccc(C(F)(F)F)c1", "assay.value": "Decrease"}
